- Tested on: KB-3-1
- Test: Cytotoxic Profiling of Annotated Libraries Using Quantitative High-Throughput Screening (AID 1296008); note: nearly all actives have a fitted effect of over 60% in size
- Assay Setup: Five cell lines viability, CellTiter-Glo ATP luminescence, 48-72 h
Results filed as inconclusive are left out. Active and inactive are the calls of the source. Calls come from the whole dose curve; as a rule, active = well fitted inhibition curve with a large enough effect; inconclusive = small, poorly fitted or top-dose-only effect; inactive = flat fitted curve, though single readings scatter. Starred links: 1 amine or outer side, 2 acyl side, 3 side chain; linkers in the order of their positions; H or OH if unused. Positions of bridges follow the written chain, without caps; N, C: chain ends. Non-standard residues stand in square brackets, D forms with d. Residues, ends and D or L forms follow the SMILES beside them. Chains are numbered I, II in the order given. Actinocin(9to1) = Cc1c2oc3c(C)ccc(C(=O)[*:1])c3nc-2c(C(=O)[*:2])c(N)c1=O; NMeV = CN[CH](C(=O)O)C(C)C; Sar = CNCC(=O)O
Allowed answers: 1.0 = active, 0.0 = inactive

Recorded test outcome, item "COC(=O)[C@@H]1CC2=CC(=O)CC[C@]2(C)[C@@]23O[C@@H]2C[C@@]2(C)[C@H](CC[C@@]24CCC(=O)O4)[C@@H]13"
0.0

Recorded test outcome, item "CC(=O)O[C@]1(C(C)=O)CC[C@H]2[C@@H]3C=C(C)C4=CC(=O)CC[C@]4(C)[C@@H]3CC[C@@]21C"
0.0

Recorded test outcome, item "CC(C)(O)Cn1c(NC(=O)c2ccc(-c3cn[nH]c3)s2)nc2cc(CN3CCOCC3)ccc21"
1.0

Recorded test outcome, item "COC[C@H](NC(=O)c1cnc(C)s1)C(=O)N[C@@H](COC)C(=O)N[C@@H](Cc1ccccc1)C(=O)[C@@]1(C)CO1"
1.0

Recorded test outcome, item "Nc1ncn([C@@H]2O[C@H](CO)[C@@H](O)[C@@H]2O)c(=O)n1"
1.0

Recorded test outcome, item "COc1cc2c(Nc3ccc(Cl)c(Cl)c3F)ncnc2cc1OCC1C[C@@H]2CN(C)C[C@H]2C1"
1.0

Recorded test outcome, item "C[C@]12CC[C@@H]3c4ccc(O)cc4CC[C@H]3[C@H]1CC[C@H]2O"
1.0

Recorded test outcome, item C#CCC(Cc1cnc2nc(N)nc(N)c2n1)c1ccc(C(=O)N[C@@H](CCC(=O)O)C(=O)O)cc1 (stereo partly specified)
1.0

Recorded test outcome, item "COc1cc([C@@H]2c3cc4c(cc3[C@@H](O[C@@H]3O[C@@H]5CO[C@@H](c6cccs6)O[C@@H]5[C@H](O)[C@@H]3O)[C@H]3COC(=O)[C@H]23)OCO4)cc(OC)c1O"
1.0

Recorded test outcome, item "NC(=O)Nc1sc(-c2ccc(F)cc2)cc1C(N)=O"
1.0

Recorded test outcome, item "COc1cccc2c1C(=O)c1c(O)c3c(c(O)c1C2=O)C[C@@](O)(C(C)=O)C[C@H]3O[C@H]1C[C@H](N)[C@H](O)[C@H](C)O1"
1.0

Recorded test outcome, item "CN[C@H]1[C@@H](O)[C@@H]2O[C@@H]3O[C@H](C)CC(=O)[C@]3(O)O[C@@H]2[C@@H](NC)[C@H]1O"
0.0

Recorded test outcome, item "C[C@H](NCc1ccc(OCc2cccc(F)c2)cc1)C(N)=O"
1.0

Recorded test outcome, item "CN(C)c1ccc(C(=O)NCCCCCCC(=O)NO)cc1"
1.0

Recorded test outcome, item "COc1ccc(C=Cc2cc(OC)c(OC)c(OC)c2)cc1NC(=O)[C@H](N)CO"
1.0

Recorded test outcome, item "CCNC(=O)Nc1ccc(-c2nc3c(c(N4CCOC[C@H]4C)n2)CCN(C2COC2)C3)cc1"
1.0

Recorded test outcome, item Cc1c2oc3c(C)ccc(C(=O)NC4C(=O)NC(C(C)C)C(=O)N5CCCC5C(=O)N(C)CC(=O)N(C)C(C(C)C)C(=O)OC4C)c3nc-2c(C(=O)NC2C(=O)NC(C(C)C)C(=O)N3CCCC3C(=O)N(C)CC(=O)N(C)C(C(C)C)C(=O)OC2C)c(N)c1=O (stereo unspecified) (I: TVP[Sar][NMeV] / II: TVP[Sar][NMeV]; ester I:1-I:C, II:1-II:C; linker I:N-II:N via Actinocin(9to1); configuration not given here)
1.0

Recorded test outcome, item "COc1cc(CCc2cc(NC(=O)c3ccc(N4C[C@@H](C)N[C@@H](C)C4)cc3)n[nH]2)cc(OC)c1"
1.0

Recorded test outcome, item "C=C1C[C@@]2(O)O[C@@]3(C[C@H]2C(C)C)[C@H](C)CC[C@H]13"
0.0

Recorded test outcome, item "N#CC(=Cc1ccc(O)c(O)c1)C(=O)NCc1ccccc1"
0.0

Recorded test outcome, item "C[C@@]12C(=O)OC(=O)[C@@]1(C)C1CCC2O1"
1.0

Recorded test outcome, item "O=C(C=CC#Cc1cccc(NS(=O)(=O)c2ccccc2)c1)NO"
1.0

Recorded test outcome, item "CCCCC(=O)O[C@]1(C(=O)CO)[C@@H](C)C[C@H]2[C@@H]3CCC4=CC(=O)C=C[C@]4(C)[C@@]3(F)[C@@H](O)C[C@@]21C"
0.0

Recorded test outcome, item "Cc1nc(NC(=O)N2CCC[C@@H]2C(N)=O)sc1-c1ccnc(C(C)(C)C(F)(F)F)c1"
1.0

Recorded test outcome, item "CC[C@]12C=CCN3CC[C@@]4(c5cc([C@@]6(C(=O)OC)C[C@H]7C[C@@H](C(C)(F)F)CN(Cc8c6[nH]c6ccccc86)C7)c(OC)cc5N(C)[C@H]4[C@@](O)(C(=O)OC)[C@H]1OC(C)=O)[C@@H]32"
1.0

Recorded test outcome, item "NC(=O)Nc1cc(-c2ccc(CN3CCOCC3)cc2)sc1C(N)=O"
1.0

Recorded test outcome, item "CCCNS(=O)(=O)Nc1ncnc(OCCOc2ncc(Br)cn2)c1-c1ccc(Br)cc1"
0.0

Recorded test outcome, item "O=C1c2c(O)cccc2[C@@H]([C@@H]2O[C@H](CO)[C@@H](O)[C@H](O)[C@H]2O)c2cc(CO)cc(O)c21"
0.0

Recorded test outcome, item "NC1=N[C@H]2[C@H](CS[C@H]2CCCCC(=O)O)N1"
0.0

Recorded test outcome, item "C[N+]1(C)[C@@H]2C[C@@H](OC(=O)C(O)(c3cccs3)c3cccs3)C[C@H]1[C@@H]1O[C@@H]12"
0.0

Recorded test outcome, item "C[C@H](O)[C@@H]1C(=O)N2C(C(=O)O)=C(S[C@@H]3CN[C@H](CNS(N)(=O)=O)C3)[C@@H](C)[C@@H]12"
0.0
